# assay-procedure: Therapeutic index, ratio of CC50 for african green monkey Vero cells to EC50 for HCV1b
# Assay type: cell-based
measured-metric: selectivity ratio

{"mol-smiles": "COC(=O)N[C@H](C(=O)N1CCC[C@H]1c1ncc(-c2ccc(-c3ccc(-c4ccc(-c5cnc([C@@H]6CCCN6C(=O)[C@@H](NC(=O)OC)C(C)C)[nH]5)cc4)cc3)cc2)[nH]1)C(C)C", "measured-metric": "selectivity ratio", "result": "> 4e+06"}

* * *

Each entry below carries its recorded log10 of CC50.
# Tested on: PBMC
# assay-procedure: Cytotoxicity against human PBMC after 3 days
# Format: cell-based
# experimental-conditions: 72 h
measured-metric: log10 of CC50 (log10 of the value in µM)

{"mol-smiles": "COC(=O)N[C@H](C(=O)N1CCC[C@H]1c1ncc(-c2ccc(-c3ccc(-c4ccc(-c5cnc([C@@H]6CCCN6C(=O)[C@@H](NC(=O)OC)C(C)C)[nH]5)cc4)s3)cc2)[nH]1)C(C)C", "log10 of CC50": 1.41}
{"mol-smiles": "COC(=O)N[C@H](C(=O)N1CCC[C@H]1c1ncc(-c2ccc(-c3ccc(-c4ccc(-c5cnc([C@@H]6CCCN6C(=O)[C@@H](NC(=O)OC)C(C)C)[nH]5)cn4)cc3)cc2)[nH]1)C(C)C", "log10 of CC50": 0.74}
{"mol-smiles": "COC(=O)N[C@H](C(=O)N1CCC[C@H]1c1ncc(-c2ccc(-c3ccc(-c4cnc([C@@H]5CCCN5C(=O)[C@@H](NC(=O)OC)C(C)C)[nH]4)s3)cc2)[nH]1)C(C)C", "log10 of CC50": 1.97}
{"mol-smiles": "COC(=O)N[C@H](C(=O)N1CCC[C@H]1c1ncc(-c2ccc(-c3ccc(-c4cnc([C@@H]5CCCN5C(=O)[C@@H](NC(=O)OC)C(C)C)[nH]4)cc3)cc2)[nH]1)C(C)C", "log10 of CC50": 1.28}
{"mol-smiles": "COC(=O)N[C@H](C(=O)N1CCC[C@H]1c1ncc(-c2ccc(-c3cn(-c4ccc(-c5cnc([C@@H]6CCCN6C(=O)[C@@H](NC(=O)OC)C(C)C)[nH]5)cc4)nn3)cc2)[nH]1)C(C)C", "log10 of CC50": 1.26}
